Entry source: ChEMBL document CHEMBL4622856

# METHOD_SUMMARY: Lipophilicity, log P of the compound
# Assay type: physicochemical
# EXPERIMENTAL_CONDITIONS: octanol/water
Hi there, I'd appreciate the recorded logP for every entry that follows.

Field: example entries. Status: answers known.
1. Clc1ccc(COC(Cn2ccnc2)c2ccc(Cl)cc2Cl)c(Cl)c1 (stereo unspecified)	> 5
2. NC(N)=O	1 to 4

Go through the items and report each one's logP.
1. CN(C/C=C/C#CC(C)(C)C)Cc1cccc2ccccc12
2. Nc1nc2c(ncn2COCCO)c(=O)[nH]1

> 5
1 to 4

Return reported logP values for all items listed beneath this line.
1. O=c1[nH]cc(F)c(=O)[nH]1
2. CC1(C)C(C=C(Cl)Cl)C1C(=O)OCc1cccc(Oc2ccccc2)c1 (stereo unspecified)

1 to 4
> 5
